# test_details: qHTS RealTime-Glo MT Cell Viability Assay in HEK293 cells - 40 hour (AID 1224874); also: % is scaled to controls: 0 for no effect and ±100 for the full control effect; nearly all actives have a fitted effect of over 50% in size
# experimental_context: RealTime-Glo luminescence; hits give low values
Inconclusive results are not listed.

{"columns": ["compound", "result_unit", "max response"],
 "data": [
  ["N#CCCSCCC#N", "%", 8.18],
  ["O=C(CBr)c1ccc(O)cc1", "%", 22.3],
  ["O=C1c2ccccc2C(=O)C1C(=O)C(c1ccccc1)c1ccc(Cl)cc1 (stereo unspecified)", "%", -21.2],
  ["Oc1ccc(I)cc1", "%", -9.46],
  ["Cl/C=C\\CCl", "%", 11.8],
  ["BrCC(Br)c1ccccc1 (stereo unspecified)", "%", 1.25],
  ["CC1(C)[C@H](C(=O)O[C@H](C#N)c2cccc(Oc3ccccc3)c2)[C@@H]1/C=C(\\Cl)C(F)(F)F", "%", -24.1],
  ["CN(CCCC(=O)c1cccnc1)N=O", "%", 13.5],
  ["CC(=O)/C=C/c1ccc2c(c1)OCO2", "%", -11.6],
  ["CCCCCCCCCCCCCN1CC(C)OC(C)C1 (stereo unspecified)", "%", -1.65],
  ["CN(C)C1CSSSC1", "%", 3.22],
  ["COc1ccc(OC)c(CC(C)N)c1 (stereo unspecified)", "%", -2.46],
  ["O=c1oc2ccccc2c(O)c1Cc1c(O)c2ccccc2oc1=O", "%", 0.643],
  ["CC(C)CC(C)N (stereo unspecified)", "%", 4.09],
  ["FC(Cl)(Cl)Cl", "%", -2.7],
  ["ClC1=C(Cl)[C@]2(Cl)[C@H]3[C@H]([C@H]4C=C[C@H]3C4)[C@@]1(Cl)C2(Cl)Cl", "%", -13.1],
  ["C=COCCCl", "%", 15.2],
  ["ClC1=C(Cl)[C@]2(Cl)[C@@H]3[C@@H](Cl)[C@@H](Cl)C[C@@H]3[C@@]1(Cl)C2(Cl)Cl", "%", 15.9],
  ["CCCSP(=O)(OCC)SCCC", "%", -0.268],
  ["CCCCCCCCCCCCBr", "%", -12.1],
  ["CC(C)OS(C)(=O)=O", "%", 0.77],
  ["CN(C)CCc1c[nH]c2ccc(O)cc12", "%", 2.26],
  ["BrC(Br)Br", "%", 17.3],
  ["CN(CCCC(O)c1cccnc1)N=O (stereo unspecified)", "%", -1.33],
  ["CCN", "%", 19.6],
  ["CCCCCCCCCCCCCCC(Br)C(=O)O (stereo unspecified)", "%", -7.18],
  ["Clc1ccc(Oc2ccccc2)cc1", "%", -29.2],
  ["CC(C)OC(=S)S", "%", 12.1],
  ["CC(C)CCCCCCCOP(=O)(Oc1ccccc1)Oc1ccccc1", "%", -33.6],
  ["CCCN(CC)CC1COC2(CCC(C(C)(C)C)CC2)O1 (stereo unspecified)", "%", -8.74],
  ["S=C=Nc1cccc2ccccc12", "%", 2.28]
]}

---

# test_details: qHTS assay to identify small molecule agonists of the sonic hedgehog signaling (Shh) pathway (AID 1259368); also: nearly all actives have a fitted effect of over 15% in size
# experimental_context: NIH/3T3 Gli1-Luc reporter, luciferase, 24 h; series mostly up to 92.4 µM
Activity calls are given as the source filed them. Calls come from the whole dose curve.
Outcomes: class 1 for active, class 0 for inactive

{"columns": ["molecule", "assigned_category"],
 "data": [
  ["COc1cccc(C(=O)CCN[C@@H](C)[C@H](O)c2ccccc2)c1", "class 0"],
  ["COc1ccc(OC)c(C=O)c1", "class 0"],
  ["COC(=O)N(C(=O)N1COC2(C(=O)OC)Cc3cc(Cl)ccc3C2=N1)c1ccc(OC(F)(F)F)cc1 (stereo not given)", "class 0"],
  ["Fc1ccc(Oc2ccnc3cc(Cl)cc(Cl)c23)cc1", "class 0"],
  ["COP(N)(=S)OC", "class 0"],
  ["CCCCCCCCCCCCBr", "class 0"],
  ["Cl/C=C\\CCl", "class 0"],
  ["CC(=O)[O-].CC(=O)[O-].O.O.[Cd+2]", "class 0"],
  ["CCOC(=O)c1ccccc1S(=O)(=O)NC(=O)Nc1nc(Cl)cc(OC)n1", "class 0"],
  ["COP(=O)(CCC(=O)NCO)OC", "class 0"],
  ["N#CCCC(Br)(C#N)CBr (stereo not given)", "class 0"],
  ["ClC1=C(Cl)[C@]2(Cl)[C@@H]3[C@@H]4C[C@@H]([C@H]5O[C@@H]45)[C@@H]3[C@@]1(Cl)C2(Cl)Cl", "class 0"],
  ["CC(C)[C@H](C(=O)OC(C#N)c1cccc(Oc2ccccc2)c1)c1ccc(OC(F)F)cc1 (stereo not given in full)", "class 0"],
  ["NC(=O)CCl", "class 0"],
  ["C=CCC1=C(C)C(OC(=O)C2C(C=C(C)C)C2(C)C)CC1=O (stereo not given)", "class 0"],
  ["CC(=O)Nc1ccc2c(c1)Cc1ccccc1-2", "class 0"],
  ["CC(C)C1CCC(Cc2ccc(Cl)cc2)C1(O)Cn1cncn1 (stereo not given)", "class 0"],
  ["c1ccc(Nc2ccc3ccccc3c2)cc1", "class 0"],
  ["ClC(Cl)=C(c1ccc(Cl)cc1)c1ccc(Cl)cc1", "class 0"],
  ["Oc1c(Cl)c(Cl)cc(Cl)c1Cl", "class 0"],
  ["c1ccc2c(c1)OCC(C1=NCCN1)O2 (stereo not given)", "class 0"],
  ["Oc1ccc(C(=C(Cl)Cl)c2ccc(O)cc2)cc1", "class 0"],
  ["c1cc[c]([Sb]([c]2ccccc2)[c]2ccccc2)cc1", "class 0"],
  ["O=C(Nc1ccc2[nH]ccc2c1)c1cc2cc(F)ccc2n1Cc1cccc(F)c1", "class 0"],
  ["C=CCOC(N)=O", "class 0"],
  ["FC(F)(F)c1cccc(C2=CCN(CCc3ccc4ccccc4c3)CC2)c1", "class 0"],
  ["Clc1ccc(CO/N=C(\\Cn2ccnc2)c2ccc(Cl)cc2Cl)c(Cl)c1", "class 0"],
  ["O=C/C(Cl)=C(/Cl)C(=O)O", "class 0"],
  ["CC(C)Oc1cccc(NC(=O)c2ccccc2C(F)(F)F)c1", "class 0"],
  ["CC(Cc1ccc(C(C)(C)C)cc1)CN1C[C@@H](C)O[C@@H](C)C1 (stereo not given in full)", "class 0"],
  ["c1ccc(OCC2CO2)cc1 (stereo not given)", "class 0"],
  ["C=COCCCl", "class 0"],
  ["CN(C)c1ccc(N=Nc2ccccc2)cc1", "class 1"],
  ["COC(=O)N(C(=O)N1CO[C@@]2(C(=O)OC)Cc3cc(Cl)ccc3C2=N1)c1ccc(OC(F)(F)F)cc1", "class 0"],
  ["C[As+](C)(C)CC(=O)[O-]", "class 0"],
  ["CCCCCCCCCCCCCCCC[n+]1ccccc1", "class 0"],
  ["CN(C)CCc1c[nH]c2ccc(O)cc12", "class 0"],
  ["CC1(C)CC/C(=C/c2ccc(Cl)cc2)C1(O)Cn1cncn1 (stereo not given)", "class 0"],
  ["CC(C)CC(C)(c1ccc(O)cc1)c1ccc(O)cc1", "class 0"],
  ["N#Cc1ccccc1N", "class 0"],
  ["Nc1ccc([N+](=O)[O-])cc1Cl", "class 0"],
  ["CCc1ccccc1C", "class 0"],
  ["CC(C)(O)c1cnn2c(-c3ccc(F)c(-c4c(F)cccc4C#N)c3)cnc2n1", "class 0"],
  ["ClCc1ccccc1CCl", "class 0"],
  ["COc1cccc2c1C(=O)c1c(O)c3c(c(O)c1C2=O)C[C@@](O)(C(=O)CO)CC3OC1CC(N2CCOC(OC)C2)C(O)C(C)O1 (stereo not given in full)", "class 0"],
  ["COc1cc(N)c(Cl)cc1C(=O)NC1CN2CCC1CC2 (stereo not given)", "class 0"],
  ["Clc1ccc(-c2ccc(Cl)c(Cl)c2Cl)c(Cl)c1Cl", "class 0"],
  ["O=CC(Br)(Br)Br", "class 0"],
  ["CC[C@H](C)[C@H]1O[C@]2(C=C[C@@H]1C)C[C@@H]1C[C@@H](C/C=C(\\C)[C@@H](O[C@H]3C[C@H](OC)[C@@H](O[C@H]4C[C@H](OC)[C@@H](O)[C@H](C)O4)[C@H](C)O3)[C@@H](C)/C=C/C=C3\\CO[C@@H]4[C@H](O)C(C)=C[C@@H](C(=O)O1)[C@]34O)O2", "class 0"],
  ["[CH3][Hg][Cl]", "class 0"]
]}

---

# test_details: qHTS assay to identify small molecule antagonists of the sonic hedgehog signaling (Shh) pathway - cell viability counter screen (AID 1259367); also: nearly all actives have a fitted effect of over 55% in size
# experimental_context: NIH/3T3 Gli1-Luc viability, CellTiter-Fluor, 24 h; series mostly up to 92.4 µM
# From the text: National Center for Advancing Translational Sciences [NCATS] NIH Chemical Genomics Center [NCGC] U.S. Environmental Protection Agency [EPA] National Institutes of Environmental Health Sciences [NIEHS] National Toxicology Program [NTP] U.S. Food and Drug Administration [FDA] The sonic hedgehog (Shh) pathway is essential for normal embryonic development. Dysregulation of the Shh pathway can cause severe developmental defects in organs. […]
Inconclusive results are not listed. Active and inactive are the calls of the source. Calls follow the shape of the dose curve; as a rule, active = well fitted cell-killing curve with a large enough effect in the repeat runs; inconclusive = weak or mixed curves, or effect the other way; inactive = no such curve, though single readings can be large or run the other way.
Outcomes: t for active, f for inactive

{"columns": ["compound", "assigned_category"],
 "data": [
  ["ClC(Cl)=C(c1ccc(Cl)cc1)c1ccc(Cl)cc1", "f"],
  ["N#CCCC(Br)(C#N)CBr (stereo not given)", "t"],
  ["C[C@@H]1O[C@@H](O[C@@H]2C=C3CC[C@@H]4[C@H](CC[C@]5(C)[C@@H](c6ccc(=O)oc6)CC[C@]45O)[C@@]3(C)CC2)[C@H](O)[C@H](O)[C@H]1O", "f"],
  ["CCCN(CCC)CCc1c[nH]c2ccccc12", "f"],
  ["N#C/C=C/c1ccccc1", "f"],
  ["CCOc1cc(C(C)(C)C)ccc1C1COC(c2c(F)cccc2F)=N1 (stereo not given)", "f"],
  ["CC(C)N1C(=O)N(c2ccccc2)CSC1=NC(C)(C)C", "f"],
  ["Cc1ccc(C(=O)Cl)cc1", "f"],
  ["Fc1cccc(Cl)c1CCl", "f"],
  ["OC(Cc1ccccc1Cl)(Cn1cncn1)C1(Cl)CC1 (stereo not given)", "f"],
  ["CN(CCCC(=O)c1cccnc1)N=O", "f"],
  ["CC1(C)[C@H](C(=O)O[C@H](C#N)c2cccc(Oc3ccccc3)c2)[C@@H]1/C=C(\\Cl)C(F)(F)F", "f"],
  ["CC(C)C1CCC(Cc2ccc(Cl)cc2)C1(O)Cn1cncn1 (stereo not given)", "t"],
  ["C[C@]12CC[C@@H]3c4ccc(OC(=O)N(CCCl)CCCl)cc4CC[C@H]3[C@@H]1CC[C@@H]2O", "f"],
  ["O=C1c2ccccc2C(=O)C1C(=O)C(c1ccccc1)c1ccc(Cl)cc1 (stereo not given)", "f"],
  ["N#Cc1ccccc1N", "f"],
  ["O=C(O)c1cc[c]([Hg][Cl])cc1", "t"],
  ["Nc1ccccc1C(=O)Oc1ccc2ccccc2c1", "f"],
  ["Oc1c(Cl)c(Cl)cc(Cl)c1Cl", "f"],
  ["Oc1ccc2ccc3cccc4ccc1c2c34", "f"],
  ["CCCCCCCCCCCCCCC(Br)C(=O)O (stereo not given)", "f"],
  ["c1cc[c]([Sb]([c]2ccccc2)[c]2ccccc2)cc1", "f"],
  ["C[C@]12CC[C@H]3[C@@H](CCC4=CC(=O)CC[C@@]43C)[C@@H]1CC[C@@H]2O", "f"],
  ["CC(C)CC(C)N (stereo not given)", "f"],
  ["COP(=O)(OC)SCn1c(=O)oc2cc(Cl)cnc21", "f"]
]}
